# System: nuOXPHOS transcripts
# Assay type: cell-based, mouse
# measurementSetup: normalized composite Z-score vs mock-treated (DMSO) wells; Conc 20 μM
measuredProperty: nucOX
# respond with the number and nothing more

// below: answered compounds
- compound: "CC(=O)O[C@@H]1CC2C(C)(C)[C@H](O)CC[C@]2(C)C2CC[C@@]3(C)[C@H](c4ccoc4)OC(=O)C4OC43[C@@]21C (stereo partly drawn) [3alpha-hydroxydeoxodihydrogedunin]"
  endpointValue: "−0.832"
- compound: "CC(=O)C=CC1C(C)(O)CCC2C(C)(C)CCCC21C (stereo not drawn) [8-hydroxy-15,16-bisnor-11-labden-13-one]"
  endpointValue: "−0.078"

Attention now shifts to the item below.
Reported nucOX for CC(=O)O[C@H]1C[C@@H](OC(C)=O)C(C)(C)C2CC(=O)[C@]3(C)C(CC[C@@]4(C)[C@H](C(=O)O)OC(=O)C5OC543)[C@]21C (stereo partly drawn) : what is it?
−0.937

###

# Test system: C2C12 myotubes
# measurementSetup: composite Z-score vs mock-treated (DMSO) wells; Conc 20 μM
Lab note: cut-off is 0.05. Strictly less in Viability is true. Exactly 0.05 or more is false.

Example results:
- compound: "C=CC(C1=CC(=O)C(OC)=C(OC)C1=O)c1ccccc1 (centres unmarked) [3,4-dimethoxydalbergione, reference compound]"
  answerLabel: "true"
- compound: "COc1cc(-c2coc3cc(O[C@@H]4O[C@H](CO)[C@@H](O)[C@H](O)[C@H]4O)c(OC)c(O)c3c2=O)cc(O)c1OC"
  answerLabel: "true"
- compound: "CC1=CCc2c(cc3oc(C)cc(=O)c3c2O)OC1"
  answerLabel: "true"

Take the compound CCC(C)C(=O)OC1[C@@H]2CC3=C4CC(=O)O[C@@H](c5ccoc5)[C@]4(C)CCC3[C@@](C)(C2=O)[C@@H](CC(=O)OC)C1(C)C (some centres unmarked) and say whether its Viability is less than 0.05.
true

Query CCC(C)C(=O)O[C@@H]1C[C@@]2(C)[C@H](c3ccoc3)OC(=O)CC23OC2(C)OC34[C@H](OC(=O)C(C)C)[C@@]3(O)[C@@H](OC(=O)C5(C)OC5C)[C@@]5(C)C[C@]3(O)[C@@](C)([C@H]5CC(=O)OC)C14O2 (some centres unmarked) next
false

Follow-up item: `COc1cc2occc2c2oc(=O)ccc12`
false

Same question, CC(C)=CCCC1(C)C=Cc2c(O)c3c(c(CC=C(C)C)c2O1)OC12C(CC4CC1C(C)(C)OC2(C/C=C(/C)C(=O)O)C4O)C3=O (centres unmarked) [tetrahydrogambogic acid] this time
false

CC(=O)O[C@H]1C[C@@H](OC(C)=O)C(C)(C)C2CC(=O)[C@]3(C)C(CC[C@@]4(C)[C@H](c5ccoc5)OC(=O)[C@H]5O[C@]543)[C@]21C (some centres unmarked) , same question.
false

###

The following compounds are shown together with reported ROS values.
# Test system: reactive oxygen species
# Type: cell-based, mouse
# measurementSetup: normalized composite Z-score vs mock-treated (DMSO) wells; Conc 20 μM
Simply state the number, no unit and no words.

# example entries with known answers
- compound: "COc1ccc([C@H]2Oc3cc(OC)cc(OC)c3C[C@H]2O)cc1 [epiafzelechin trimethyl ether]"
  ROS: "−0.190"
- compound: "CC1(C)C2CC(=O)[C@]3(C)C(CC[C@@]4(C)[C@H](c5ccoc5)OC(=O)[C@H]5O[C@]543)[C@@]2(C)C(=O)C[C@H]1O (stereo partly shown)"
  ROS: 0.122
- compound: "COc1ccc2c(=O)c(OC)c(-c3ccccc3)oc2c1 [3,7-dimethoxyflavone]"
  ROS: 0.652

Please examine the following record next.
// returns reported ROS for input COc1ccc(-c2cc(=O)c3ccc(OC)cc3o2)cc1 [4,7-dimethoxyflavone]
1.067
